- Tested on: EKVX NSCLC
- test_details: NCI tumour cell line growth inhibition, 48 h; in the data active = GI50 below about 0.43 µM; inactive = the rest
Your response should consist of one outcome taken from 1 = active, 0 = inactive

Below are worked cases with known answers.
CC(C)(C)[Si](C)(C)OC1[C@@H](O[Si](C)(C)C(C)(C)C)[C@@H](CNC(=O)NC(=O)NC(=O)CI)O[C@H]1n1cnc2c(NC(=O)Nc3ccccc3)ncnc21 (some centres undefined)    1
COc1ccc(C(=O)c2cc(OC)c(OC)c(OC)c2)cc1/C=C/C(=O)c1ccc(O)cc1    0
CCNCCNc1cc(-c2ccc(Cl)cc2)c(C#N)c2nc3ccccc3n12    0

What did this assay record as the result for COC(=O)c1ccc(-c2nc3cc(F)c(F)cc3nc2C#N)cc1 ? 0

* * *

- System: EKVX NSCLC
- test_details: NCI tumour cell line growth inhibition, 48 h
assay_readout: TGI

Solved cases below.
NS(=O)(=O)c1ccc(NC(=S)/N=C/c2c(O)c3ccccc3[nH]c2=O)cc1    > 100 µM
O=C(Nc1cccc(NS(=O)(=O)c2ccc(F)cc2)c1)c1ccc(-c2ccccc2)cc1    65.3 µM
CCCCCCC(O)C/C=C/CCCCCC/C(C(=O)OC)=C(/O)C(=O)OCC (stereo unspecified)    > 100 µM

Entry Cc1ccc(-n2nnc3c(NNc4ccccc4)n[nH]c(=O)c32)cc1 : reported TGI = ? > 100 µM

Entry CCCOP1(=O)C=C(C)C(Cl)=C(C)C1 (stereo unspecified) : reported TGI = ? > 100 µM

Entry COc1ccccc1/[N+]([O-])=C/c1ccccc1OC(=S)S : reported TGI = ? > 100 µM

Entry CC1=CCP(C(F)(F)F)P(C(F)(F)F)C1 (stereo unspecified) : reported TGI = ? > 100 µM

Entry O=C1C(Cl)=C(Oc2ccccc2)C(=O)c2ccccc21 : reported TGI = ? 24 µM

Entry CCOC(=O)/C(=C\NC[C@@H](C)O)c1nc2ccccc2[nH]1 : reported TGI = ? > 100 µM

Entry O=P(Oc1ccccc1)(Oc1ccccc1)C(O)c1ccccc1 (stereo unspecified) : reported TGI = ? > 100 µM

Entry O=C1c2scc(-c3ccc(F)cc3)c2-n2cccc21 : reported TGI = ? > 100 µM

Entry O=S(=O)(O)c1cccc2ccc(O)c(N=Nc3ccc(S(=O)(=O)c4ccc(N=Nc5c(O)ccc6cccc(S(=O)(=O)O)c56)cc4)cc3)c12 : reported TGI = ? > 100 µM

Entry CSC1=C(C)S/C(=C\c2ccc(/C=C3\SC(C)=C(SC)S3)cc2)S1 : reported TGI = ? > 100 µM

Entry O=C(c1c(F)c(F)c(F)c(F)c1F)n1c(=O)[nH]c2ccccc21 : reported TGI = ? 29.3 µM

Entry COc1cccc(N2C(=O)CSC2c2c[nH]c3ccccc23)c1 (stereo unspecified) : reported TGI = ? > 100 µM

Entry COC(=O)C1Cc2c(n(C)c3ccccc23)C(c2ccccc2)N1 (stereo unspecified) : reported TGI = ? > 100 µM

* * *

- System: HT29 colon
- test_details: NCI tumour cell line growth inhibition, 48 h
assay_readout: TGI

CN(C)c1ccc(/C=C(\NC(=O)c2ccccc2)c2nc3ccccc3c(=O)o2)cc1    > 100 µM
O=C(O)C(Cc1ccccc1-c1ccccc1)C(=O)O    > 100 µM
Cc1cccc2c1CC(C1OC(=O)c3c(C)cccc31)C2=O (centres undefined)    > 100 µM

Which TGI is reported with HT29 colon for this entry: Cc1ccc(-n2nnc3c(NNc4ccccc4)n[nH]c(=O)c32)cc1 ? > 100 µM
